# Tested on: MALME-3M melanoma
# ASSAY TEXT: NCI-60 one-dose screen, 48 h
# MEASUREMENT CONDITIONS: 10 µM unless noted
This is part of a sample that, as a whole, favours compounds with a hit. Of some 83,000 tested, about 20% had one in any assay. Calls of active or inactive are those of the source. How the source made its calls: active means growth percent below 10; inactive means the rest.
Possible outcomes: active, inactive

INSERT INTO assay_data (compound, target_system, label_class) VALUES
  ('CN(C)CC#Cc1ccc2ncc(C#N)c(Nc3ccc(F)c(Cl)c3)c2c1', 'MALME-3M melanoma', 'inactive'),
  ('CN(C)CCNc1nc2ccccc2c2c(=O)c3cc(F)ccc3sc12', 'MALME-3M melanoma', 'inactive'),
  ('C/C(=N/NC(N)=S)c1sc(Nc2cccc(Cl)c2)nc1C', 'MALME-3M melanoma', 'inactive'),
  ('CCCCn1c(=O)c(-c2cc(-c3ccc(Cl)cc3)nc(-c3ccc(Cl)cc3)c2)cc2cc(Cl)ccc21', 'MALME-3M melanoma', 'inactive'),
  ('Cc1onc2c(-c3ccccc3)n[nH]c(=O)c12', 'MALME-3M melanoma', 'inactive'),
  ('O=C(N/N=C/[C@H](O)[C@@H](O)[C@@H](O)[C@H](O)CO)c1ccc(NC(=O)c2cccnc2)cc1', 'MALME-3M melanoma', 'inactive'),
  ('COc1ccc(NC2=C(Br)C(=O)C(C)=C(C)C2=O)cc1', 'MALME-3M melanoma', 'inactive'),
  ('O=C(COc1ccc(/C=C2\Cc3ccc(Cl)cc3C2=O)cc1)Nc1nc2ccccc2s1', 'MALME-3M melanoma', 'inactive'),
  ('O=C1CCC/C=C\C[C@H]2C=CC(=O)/C2=C/C[C@H](CCc2cccc(C(F)(F)F)c2)O1', 'MALME-3M melanoma', 'active'),
  ('CCOc1c(B(O)O)cccc1-c1nc2ccc3[nH]ncc3c2c2c1CCCC2', 'MALME-3M melanoma', 'inactive'),
  ('Cc1cc(N2CCCC2)nc(N(CCCNc2ccnc3cc(Cl)ccc23)Cc2ccccn2)n1', 'MALME-3M melanoma', 'inactive'),
  ('O=C(/C=C/c1sc(Cl)nc1Cl)c1ccccc1', 'MALME-3M melanoma', 'inactive'),
  ('Cc1ccc(-c2nc(N3CCN(C(=O)Nc4ccc(Cl)c(C(F)(F)F)c4)CC3)c3ccccc3n2)cc1', 'MALME-3M melanoma', 'inactive'),
  ('Cn1cc(-c2ccc3cc(-c4ccc(CC(=O)Nc5cc(C(C)(C)C)nn5C)cc4)cnc3c2)cn1', 'MALME-3M melanoma', 'active'),
  ('c1ccc(Cc2nn3cc(-c4ccccc4)nc3s2)cc1', 'MALME-3M melanoma', 'inactive'),
  ('COc1cccc(Cc2cc(-c3ccccc3)nn(CC(=O)c3ccccc3)c2=O)c1', 'MALME-3M melanoma', 'inactive'),
  ('COc1cc(C2CC(c3ccc(SC)cc3)=NN2C(C)=O)cc(OC)c1OC (configuration not stated)', 'MALME-3M melanoma', 'inactive'),
  ('CC/C=C\C[C@@H](O)C/C=C1/C(=O)C=C[C@H]1C/C=C\CCCC(=O)OC', 'MALME-3M melanoma', 'inactive'),
  ('Cc1ccc(C2CC(c3ccc(Nc4ccnc5cc(Cl)ccc45)cc3)=NN2C=O)cc1 (configuration not stated)', 'MALME-3M melanoma', 'inactive'),
  ('COc1ccc2nc(NC(=O)c3cccnc3Nc3ccc(S(N)(=O)=O)cc3)sc2c1', 'MALME-3M melanoma', 'inactive'),
  ('Cc1cc2nc3cc(C)c(N)cc3[n+](-c3ccccc3)c2cc1N', 'MALME-3M melanoma', 'inactive'),
  ('CC/C=C\C[C@@H]1C/C=C2/C(=O)C=C[C@H]2C/C=C\CCCC(=O)O1', 'MALME-3M melanoma', 'active'),
  ('CCCCCCNC(=O)Oc1ccc(/C(=C(\C)c2ccc(OC)cc2)c2ccc(OCCN3CCCCC3)cc2)cc1', 'MALME-3M melanoma', 'inactive'),
  ('CSc1nc2ccc(C)cc2cc1/C=N/O', 'MALME-3M melanoma', 'inactive'),
  ('COc1cc(C(=O)/C=C/c2c(Cl)nc3sccn23)cc(OC)c1OC', 'MALME-3M melanoma', 'inactive'),
  ('Cc1nn(-c2ccccc2)c(-n2ccnc2)c1/C=N/Nc1nc(-c2ccc(F)cc2)cs1', 'MALME-3M melanoma', 'inactive'),
  ('COc1ccc(OC)c(/C=C/c2nnc(Nc3ccccc3)o2)c1', 'MALME-3M melanoma', 'inactive'),
  ('Nc1nn(C(=O)Nc2ccc(Cc3ccccc3)cc2)c2ccc(Cl)cc12', 'MALME-3M melanoma', 'inactive'),
  ('CC1=C(SCCC(=O)OC(C[Se]C2=C(C)C(=O)c3ccccc3C2=O)C(=O)NC(C)(C)C)C(=O)c2ccccc2C1=O (configuration not stated)', 'MALME-3M melanoma', 'active'),
  ('Fc1cc2c(cc1Cl)N(c1ncnc3ccc(-c4cnc5cnccn45)cc13)CC2', 'MALME-3M melanoma', 'inactive'),
  ('Cc1cc(C)c(-c2c(N)cc(Br)cc2Br)c(N)c1', 'MALME-3M melanoma', 'inactive'),
  ('Cc1ccc(C(=O)N/N=C/c2cccc([N+](=O)[O-])c2)cn1', 'MALME-3M melanoma', 'inactive'),
  ('COc1ccc(/C=C(/C#N)n2nnc3cccc(F)c32)cc1', 'MALME-3M melanoma', 'inactive'),
  ('CCCCOc1ccc(/C=N/NC(N)=S)cc1', 'MALME-3M melanoma', 'inactive'),
  ('COc1ccc2c(c1)C(C)Cc1c(ncnc1-n1c(C)nc3ccccc31)N2C (configuration not stated)', 'MALME-3M melanoma', 'inactive'),
  ('CN1CCN(c2ccc(-c3cnc4c(-c5csc6ccccc56)cnn4c3)cc2)CC1', 'MALME-3M melanoma', 'active'),
  ('COc1ccc(N2C(=O)C(Oc3ccccc3)C2c2ccc(C)cc2)cc1 (configuration not stated)', 'MALME-3M melanoma', 'inactive'),
  ('Cc1ccc2sc3c(NCCCN)nc4ccccc4c3c(=O)c2c1', 'MALME-3M melanoma', 'inactive'),
  ('O=C(S)CNC(=O)c1ccccc1', 'MALME-3M melanoma', 'inactive'),
  ('Cc1ccc(C(CC(=O)O)c2c(C)[nH][nH]c2=O)cc1 (configuration not stated)', 'MALME-3M melanoma', 'inactive'),
  ('O=C(Nc1c2ccccc2nc2ccccc12)c1ccccc1CN1C(=O)c2ccccc2C1=O', 'MALME-3M melanoma', 'inactive'),
  ('Cc1ccc(-c2nn(C)c(=O)c3noc(-c4ccc(C)cc4)c23)cc1', 'MALME-3M melanoma', 'inactive');
